Assay: label from the status in PepcDB records;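 further: failed if final PepcDB status was selected cloned or expressed and not failed if soluble or beyond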
measure-name: protein production

INSERT INTO assay_data (sequence_data, readout_value) VALUES
  ('MRLIVVGIAEDITEKKQLETELQRLATTDVLTQSSNRRHFFECANREFEQARLQGSSLAFLLLDIDDFKVINDTYGHPEGDIVLQRIAESGRAALRRGDLFGRIGGEEFAAVFPGCTADMARQVAERLQREIQRQNFSHQGQTFTITVSQGLTGLLAEDESLDNLFARADSAMYEAKRQGKNRIITGLEHHHHHH', 'failed'),
  ('MLKQRIITALILLPIALCGFFLLEGSGFALFIGLVVSLGAWEWARLAGFEAQPARVAFAVVVAALLFLMHLVPGVAPWVLGAAVLWWALATYLVLTYPRSSEQWSGAAPKLLIGLLILLPAWQGLVFIKQLPLGNWLIMAVMVLVWGADIGAYFSGKAFGKRKLAPQVSPGKSWEGVYGGLALSLVITAVVGLVRDWTLGQMILGLLGAAIVVFISVVGDLTESMFKRQSGIKDSSNLLPGHGGVLDRIDSLTAAIPVFAVLLWMAAL', 'failed');

----------
Assay: label from the status in PepcDB records
measure-name: protein production

INSERT INTO assay_data (sequence_data, readout_value) VALUES
  ('MKTTYNRWWKKKVWFGRKDMSYKVIVDSCGEFTPEMKADGGFEHVALGIQIEDTQWTDDDSLKQEELLLKIAESTSCAKTSCPSPERYMESYHCDAERIYVVTLSAELSGSYNSAVLGKNLYEEEYGEKQIHVFNSRSASVGETLIALKVQQCEKAGMTFEEVVESVECYIEEQHTYFVLENLDTLRKNGRLTGIKSLVAGALNIKPIMGSTPQGTICQKEKARGMKKALVKMADCVAADVVNAGDKILAIAHCNCEERAKEVQRLLKERFAVKSSFIVDTSGISTVYANDGGIIVVV', 'not failed'),
  ('GQLSIKLWFDKVGHQLIVTILGAKDLPSREDGRPRNPYVKIYFLPDRSDKNKRRTKTVKKTLEPKWNQTFIYSPVHRREFRERMLEITLWDQARVREEESEFLGEILIELETALLDDEPHWYKLQTHD', 'not failed');

----------
Assay: label from the status in PepcDB records
measure-name: protein production

Example cases with answers are listed next.
INSERT INTO measurements (sequence_data, readout_value) VALUES
  ('MGHHHHHHSHMSRVPPTVTNAVSWRSEGIKYKKNEVFIDVIESVNLLVNANGSVLLSEIVGTIKLKVFLSGMPELRLGLNDRVLFELTGRSKNKSVELEDVKFHQCVRLSRFDNDRTISFIPPDGDFELMSYRLSTQVKPLIWIESVIEKFSHSRVEIMVKAKGQFKKQSVANGVEISVPVPSDADSPRFKTSVGSAKYVPERNVVIWSIKSFPGGKEYLMRAHFGLPSVEKEEVEGRPPIGVKFEIPYFTVSGIQVRYMKIIEKSGYQALPWVRYITQSGDYQLRTS', 'failed'),
  ('MSSNPLRFFVLTIFPHIISCYSEYGIVKQAIKKGKVEVYPIDLREFAPKGQVDDVPYGGLPGMVLKPEPIYEAYDYVVENYGKPFVLITEPWGEKLNQKLVNELSKKERIMIICGRYEGVDERVKKIVDMEISLGDFILSGGEIVALAVIDAVSRVLPGVLSEPQSIQEDSFQNRWLGYPVYTRPREYRGMKVPEELLSGHHKLIELWKLWHRIENTVKKRPDLIPKDLTELEKDILNSILSGKSFKEWLKEHKHLL', 'not failed'),
  ('MLSELAKQFSTQIQTFFYLIMLINGLLHFIFAGAVARDAGNLYRLGQKPVLVSAPTWAFATLIGGVITATIYWLLHHSTLTRPTMREIRYDKA', 'failed'),
  ('MKRKGVGFSLPVTVVMLVIGFIYFASVFTFIDRWFSLTSSPGIANAAAFTALALMCIYNYSIAVFRDPGRVPLNYMPDVEDPESPVHEIKRKGGDLRYCQKCSHFKPPRAHHCRVCKRCVLRMDHHCIWINNCVGHTNYKVFFVFVVYAVTACVYSLVLLVGSLTVEPQDEEEEMGSYLRTIYVISAFLLIPLSIALGVLLGWHIYLILQNKTTIEVYHEGVRAMWLAEKGGQVYKHPYDIGAYENLTLILGPNILSWLCPTSRHIGSGVRFRTAFDSIPDSSETKH', 'failed'),
  ('NLLDDAVKRISEDPPCKCPTKFCVERLSQGRYRVGEKILFIRMLHNKHVMVRVGGGWETFAGYLLKHDPCRMLQISRVDGKTSP', 'not failed'),
  ('MYENKIVPLQMDRRKYLQSCVENMSITFVLFGTINIFFNLLINLINIGRINYEHFFKLFSITSGLWIVIILVQITSYLFSSGFFENLATIFLHDNERNKGDIWNIKSIGMFLINIITLGWLSIFSFYGIFSYIINSFDLINNFMLSTTILNFSVNLLFVLNQFLYFLFKVHEIRNIEFHNCLIHFLPGFSRMLESIVLTVKSKIMDNLSKNKNFVKAKNKKRFIDHNSYPYGDQ', 'failed'),
  ('MKFSVIIPVYNASKFIDYCVESVLSQSYSDIEVILINDGSTDKSGEICEGFARKDNRVKVYHQENQGAAVARNHGIRKATGDYLLFPDSDDYYASSLGFEEINNQLEETKADVLIHDSFVERGNGTPDDLHSSLLREEVLKLEKIEFIEYLIKKDKLTRSAWTKVISRSFLSKNNILFPTVRQTEDTGFTAELVRLGNSFDWYEKQFYAYVKHDESVTAKRLPESIIHDSFSVIKTAVINGELIKDSRYREAYYSYLAYPYVVLIGQTKEAINRGVIKENTILNDLKQYSFLMKYNLNPKLKVIKHLYKLFGYLMIVFLLSVMMELTYRKQGV', 'failed'),
  ('MKMVDELKGNLNSFLILLGIFSFLQFSFKQSFMFPSILPLNIPDSNLLLVIGNISFYFFFVFLLIVSMILSLTYKSLIPLTIILTISPFITLIPNYENSFLLYSLEIAILILGLASTIEGLIKSSLLSILLIPTLVLVNLGIYASILLNIFHNALFISYLTIYLISIAGYLAYVISWGKIKSLRNYIAISVGLLSMIPFIFFENIISHNRYLEILMNMILPSTLGITLYNPYHITLLVMALGLSTMGIVTSLIKGNVSSGVGYFLIITTVFLGIDGFSLLIYMLTPIIGFLVITSSEIESKRRLIDIISPTRNG', 'failed'),
  ('MGACVCRMNPDNETMSVSSASISRPASAGIAMGAARKNRPLCHETIRWRSDVPLTEGQLRSKRDEFWDTAPAFDGRKEIWDALRAATTAAEGLDFQMAQAILDGANVSVPNGYLTECYDELGTQYKVPIYCLSYPINIVKEENGRDSPAEYSEPVDGGTDIFLKLRISSTMTDVKLPVYSKDTVGQCKKKLQAAEGVDACCQRWFYSGKLLGDKVPIDECSIHQGYVVQVIVNTEHYNHDNSTSTAHAS', 'failed'),
  ('MSMVVNSSDQAITMESLGISGHCDDVFCNELTATVIGEMTKRPTRLDIPIGVDGFVAPISSSADVTVTSREECREVEREGYEDTVNNEEISKPKSMKLLAHAGDDESIKRQENEDDDGRTTVDDDDGRGRINVSRLKALLMITTRE', 'failed');

Incoming: Which protein production is reported for this sequence? ARLVQLSRHSIAFPSPEGALREPNGLLALGGDLSPARLLMAYQRGIFPWFSPGDPILWWSPDPRAVLWPESLHISRSMKRFHKRSPYRVTMNYAFGQVIEGCASDREEGTWITRGVVEAYHRLHELGHAHSIEVWREDELVGGMYGVAQGTLFCGESMFSRMENASKTALLVFCEEFIGHGGKLIDCQVLNDHTASLGACEIPRRDYLNYLNQMRLGRLPNNFWVPRCLFSPQE
Outgoing: not failed

Incoming: Requested read-out: protein production. Entry: DSLKAEVNTLFARFDEQPLAAASIAQVHTAALFDGREVIVKVTRPNIRTQILQDFEIISWLGQSLESRLEAARALHLSEIIQDYRQIILNELDLTLEADNTRRMRHYFTGSSMMYVPEVY
Outgoing: not failed

Incoming: // lookup protein production for MNDRVIQNSRQGERVLAALSYFSIFFAPIILPIFIWIFADRPTSNHAAKSLAYHIITYIGPILLILSIGFGGVLINNSSTITSVIMITVAIILFVITVWYTIKNIYRGVRVLISEHAYFHP
Outgoing: failed

----------
Assay: label from the status in PepcDB records
measure-name: protein production

INSERT INTO assay_data (sequence_data, readout_value) VALUES
  ('MSDVYNNEAFFKQYMKRRYRENSPNELIEKPAFFQLIGDVKGKKILDLGCGDAIFGKELLEKDCHSYTGIEGSELMYEKAKKQLENKNGIVHFLNLKDYTYPPATFDLVTSRLALHYIEHLPIIFQNVYETLKTNGTFTFSVQHPVITSSFESLQTSGKRTSWLVDDYFKTGKRVEPWIDQKVIKYHRTTEEYFTLLQQAGFTITNLKEATPNQTYFQSAEEYERRLRIPLFLLFSCRKLEHHHHHH', 'failed'),
  ('MRAARLIKMVLLLQSRPTMTAAELARELEVSERTVTRDAQALSEAGVPVYAERGRAGGYRLVGGYRTRLTGLARGEAEALFLSGVPGALREMGLEDAASAARLKVSAALLPSLRDASRTAAQRFHLDAPNWFREPETPELLPAVADAVWDDRRVAARYRRGTDEVVRELEPYGLVLKAGVWYLCARVAGTAGDGPFRVYRIDRFTAVEAGEERFVRDDGFDLPAFWAERAEQFARSILRAEVVVRLSERGVRGLPYAVDALSAREALEAAGAPDADGWVTVALPVESEEVAHAQLRGLGPEVEVLAPAALRERFAREARRLAELYGG', 'failed');
